Where do the numbers come from? From patent US20120015885A1.

test_system: calcium/calmodulin (CaM)-dependent protein kinase II (CaMKII) (UniProt P11275 1-478)
Sequence (P11275 whole entry): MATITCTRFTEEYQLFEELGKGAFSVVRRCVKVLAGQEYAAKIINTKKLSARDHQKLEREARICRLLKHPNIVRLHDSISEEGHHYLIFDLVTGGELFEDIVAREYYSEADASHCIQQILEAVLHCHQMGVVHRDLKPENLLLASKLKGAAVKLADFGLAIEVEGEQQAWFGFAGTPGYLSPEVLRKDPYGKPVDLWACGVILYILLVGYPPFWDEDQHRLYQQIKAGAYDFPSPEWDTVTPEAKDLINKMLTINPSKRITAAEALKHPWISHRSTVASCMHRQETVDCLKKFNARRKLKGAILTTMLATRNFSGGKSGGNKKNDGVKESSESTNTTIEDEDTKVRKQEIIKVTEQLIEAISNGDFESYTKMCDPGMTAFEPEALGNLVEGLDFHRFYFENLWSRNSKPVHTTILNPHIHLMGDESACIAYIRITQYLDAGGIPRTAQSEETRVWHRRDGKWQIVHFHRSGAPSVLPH
procedure_summary: cell-based or functional assay
measured_endpoint: IC50, CaMKII activity

Consider the reported IC50, CaMKII activity for these binders:
>  <binder>
KRPPKLGQIGRSKAVVIED [CN19 R14A]

>  <IC50, CaMKII activity>
< 10 nM

$$$$
>  <binder>
KRAPKLGQIGRQKAVVIED [V12Q mutant of CN19a2v]

>  <IC50, CaMKII activity>
~1 nM

$$$$
>  <binder>
KRAPKLGQIGRQKAVDIED [CN19o]

>  <IC50, CaMKII activity>
~0.75 nM

$$$$

Read the next record carefully.
Documented IC50, CaMKII activity of KRAPKLGQIGRVKAVDIED [V16D mutant of CN19a2v] : ~1 nM
